Assay: clinical
Conditions: human, in vivo, elimination half-life (population mean)
MEASURED METRIC: half-life (min)
Please reply with the bare figure in min and do not write the unit itself.

State the recorded half-life for this entry: COC(=O)c1ccc2c(c1)NC(=O)/C2=C(\Nc1ccc(N(C)C(=O)CN2CCN(C)CC2)cc1)c1ccccc1
21.6

###

Assay: clinical
Details: human, in vivo, absorption half-life
MEASURED METRIC: half-life (h)
Please reply with the bare figure in h and do not write the unit itself.

State the recorded half-life for this entry: COC(=O)c1ccc2c(c1)NC(=O)/C2=C(\Nc1ccc(N(C)C(=O)CN2CCN(C)CC2)cc1)c1ccccc1 [nintedanib]
8.38
